System: A. polyphaga (ATCC-30461) trophozoites
PROCEDURE_DETAILS: In vitro anti-Acanthamoeba activity, A. polyphaga trophozoite viability
Format: cell-based
TEST_CONDITIONS: ratio CC50 C6 glial cells / IC50 A. polyphaga
ATTRIBUTE_MEASURED: SI, sensitivity index (CC50 C6 glial cells / IC50 A. polyphaga)
// print number alone

query: Param item = C=C1C(=O)O[C@@H]2/C=C(\C)CC/C=C(\C)CC[C@@H]12 [Costunolide, costunolide] ; retrieve measured SI, sensitivity index (CC50 C6 glial cells / IC50 A. polyphaga).
result: 5.44

query: Next up: O=c1c(O)c(-c2ccc(O)cc2)oc2cc(O)cc(O)c12
result: 11.67

query: Another molecule to look at: C=C1CC/C=C(\C)CC[C@@H]2[C@@H]1CC2(C)C [(−)-trans-Caryophyllene, (−)-trans-caryophyllene]
result: 4.92

query: Please answer likewise for O=c1cc(-c2ccc(O)cc2)oc2cc(O)cc(O)c12
result: 8.58

----------
Test system: Naegleria fowleri trophozoites (Carter NF69 strain, ATCC 30215)
PROCEDURE_DETAILS: In vitro anti-N. fowleri activity, trophozoite viability
Format: cell-based
TEST_CONDITIONS: ratio CC50 C6 glial cells / IC50 N. fowleri
Decision: SI, sensitivity index (CC50 C6 glial cells / IC50 N. fowleri) compared against 3; not below it gives 1.0, below it gives 0.0.

query: Record O=c1c(-c2ccc(O)cc2)coc2cc(O)cc(O)c12 [Genistein, genistein] ; criterion: SI, sensitivity index (CC50 C6 glial cells / IC50 N. fowleri) no lower than 3. Met?
result: 0.0

query: Next molecule: CC[C@H]1OC(=O)[C@H](C)[C@@H](O[C@H]2C[C@@](C)(OC)[C@@H](O)[C@H](C)O2)[C@H](C)[C@@H](O[C@@H]2O[C@H](C)C[C@H](N(C)C)[C@H]2O)[C@](C)(O)C[C@@H](C)CN(C)[C@H](C)[C@@H](O)[C@]1(C)O [Azithromycin, Azithromycin dihydrate, reference compound]
result: 1.0

query: Now give it for O=C(/C=C/c1ccc(O)c(O)c1)O[C@H](Cc1ccc(O)c(O)c1)C(=O)O [Rosmarinic acid, rosmarinic acid] too.
result: 1.0

query: For Oc1ccc(/C=C/c2cc(O)cc(O)c2)cc1 [Resveratrol, resveratrol] then?
result: 1.0

query: What do you have for O=c1cc(-c2ccc(O)cc2)oc2cc(O)cc(O)c12 [Apigenin, apigenin] ?
result: 0.0

----------
Tested on: A. polyphaga (ATCC-30461) trophozoites
PROCEDURE_DETAILS: In vitro anti-Acanthamoeba activity, A. polyphaga trophozoite viability
Format: cell-based
TEST_CONDITIONS: read-out: A. polyphaga (IC50 ±SD); trophozoites, 0–400 μM, 25°C, 48 h; mean±SD of 3 independent experiments; listed as (−)-epigallocatechin
pIC50: −log10 of the molar value.
ATTRIBUTE_MEASURED: pIC50

query: May I ask what pIC50 has been recorded for Oc1cc(O)c2c(c1)O[C@H](c1cc(O)c(O)c(O)c1)[C@H](O)C2 [(−)-Epigallocatechin, (−)-epigallocatechin] ?
result: > 4.30

----------
Tested on: Naegleria fowleri trophozoites (Carter NF69 strain, ATCC 30215)
PROCEDURE_DETAILS: In vitro anti-N. fowleri activity, trophozoite viability
Assay type: cell-based
TEST_CONDITIONS: read-out: N. fowleri (IC50 ±SD); trophozoites, 0–400 μM, 37°C, 48 h; mean±SD of 3 independent experiments
ATTRIBUTE_MEASURED: pIC50
The scale used: pIC50 is minus the common logarithm of the concentration in molar units.

query: Short answer please: pIC50, Naegleria fowleri trophozoites (Carter NF69 strain, ATCC 30215), entry O=c1cc(-c2ccc(O)c(O)c2)oc2cc(O)cc(O)c12 [Luteolin, luteolin]
result: 4.56

query: Follow-up item: O=c1c(O)c(-c2ccc(O)cc2)oc2cc(O)cc(O)c12 [Kaempferol, kaempferol]
result: 4.56

query: Record: COc1cc(/C=C/C(O)=C/C(=O)/C=C/c2ccc(O)cc2)ccc1O [Demethoxycurcumin, demethoxycurcumin]
result: 4.57

query: Next record, please: Oc1cc(O)c2c(c1)O[C@H](c1cc(O)c(O)c(O)c1)[C@H](O)C2 [(−)-Epigallocatechin, (−)-epigallocatechin]
result: 3.94

----------
System: Naegleria fowleri trophozoites (Carter NF69 strain, ATCC 30215)
PROCEDURE_DETAILS: In vitro anti-N. fowleri activity, trophozoite viability
Assay type: cell-based
TEST_CONDITIONS: Naegleria fowleri, ATCC30215, 48 h, read-out: N. fowleri (IC50 ±SD, μM), trophozoites, 0–400 μM, 37°C, 48 h; mean±SD of 3 independent experiments
ATTRIBUTE_MEASURED: IC50 (µM)
Your answer is read as µM, so omit the unit and give the number.

query: Reported IC50, compound Oc1cc(O)c2c(c1)O[C@H](c1ccc(O)c(O)c1)[C@H](O)C2 [(−)-Epicatechin, (−)-epicatechin] : ____
result: 103

query: Record: Oc1ccc(/C=C/c2cc(O)cc(O)c2)cc1 [Resveratrol, resveratrol]
result: 47.2

query: Also O=c1cc(-c2ccc(O)cc2)oc2cc(O)cc(O)c12 [Apigenin, apigenin] ?
result: 94.7

query: // same read-out, input: C=C1CC/C=C(\C)CC[C@@H]2[C@@H]1CC2(C)C [(−)-trans-Caryophyllene, (−)-trans-caryophyllene]
result: 84.8

----------
Test system: A. castellanii (ATCC-30868) trophozoites
PROCEDURE_DETAILS: In vitro anti-Acanthamoeba activity, A. castellanii trophozoite viability
Format: cell-based
TEST_CONDITIONS: Acanthamoeba castellanii, ATCC30868, 48 h, read-out: A. castellanii (IC50 ±SD, μM)
ATTRIBUTE_MEASURED: IC50
# output: numeric value plus its unit

query: # IC50 lookup, item COc1ccc2c(c[n+](C)c3c4cc5c(cc4ccc23)OCO5)c1OC [Chelerythrine, chelerythrine chloride]
result: 148 µM

----------
Please go through the items and note down their SI, sensitivity index (CC50 C6 glial cells / IC50 A. polyphaga).
Tested on: A. polyphaga (ATCC-30461) trophozoites
PROCEDURE_DETAILS: In vitro anti-Acanthamoeba activity, A. polyphaga trophozoite viability
Type: cell-based
TEST_CONDITIONS: ratio CC50 C6 glial cells / IC50 A. polyphaga
Answer field: number only, no words.

query: Which SI, sensitivity index (CC50 C6 glial cells / IC50 A. polyphaga) reading was recorded for the molecule CC[C@H]1OC(=O)[C@H](C)[C@@H](O[C@H]2C[C@@](C)(OC)[C@@H](O)[C@H](C)O2)[C@H](C)[C@@H](O[C@@H]2O[C@H](C)C[C@H](N(C)C)[C@H]2O)[C@](C)(O)C[C@@H](C)CN(C)[C@H](C)[C@@H](O)[C@]1(C)O [Azithromycin, Azithromycin dihydrate, reference compound] ?
result: 20.93

query: // next record Oc1cc(O)c2c(c1)O[C@H](c1cc(O)c(O)c(O)c1)[C@H](O)C2 [(−)-Epigallocatechin, (−)-epigallocatechin]
result: 11.55

query: Can you handle Oc1ccc(/C=C/c2cc(O)cc(O)c2)cc1 [Resveratrol, resveratrol] next?
result: 7.04

query: Thanks! And Oc1cc(O)c2c(c1)O[C@H](c1ccc(O)c(O)c1)[C@H](O)C2 [(−)-Epicatechin, (−)-epicatechin] ?
result: 12.73

----------
Tested on: Naegleria fowleri trophozoites (Carter NF69 strain, ATCC 30215)
PROCEDURE_DETAILS: In vitro anti-N. fowleri activity, trophozoite viability
Type: cell-based
TEST_CONDITIONS: ratio CC50 C6 glial cells / IC50 N. fowleri
# note: boundary value 2 maps to false (0); SI, sensitivity index (CC50 C6 glial cells / IC50 N. fowleri) below it maps to true (1)

query: Given the entry C=C1CC/C=C(\C)CC[C@@H]2[C@@H]1CC2(C)C [(−)-trans-Caryophyllene, (−)-trans-caryophyllene] , would its reported SI, sensitivity index (CC50 C6 glial cells / IC50 N. fowleri) be below 2?
result: false (0)

query: Try COc1ccc2c(c[n+](C)c3c4cc5c(cc4ccc23)OCO5)c1OC [Chelerythrine, chelerythrine chloride] next.
result: true (1)

query: Proceed to Oc1cc(O)c2c(c1)O[C@H](c1ccc(O)c(O)c1)[C@H](O)C2 [(−)-Epicatechin, (−)-epicatechin]
result: false (0)

query: Next: COc1cc(/C=C/C(O)=C/C(=O)/C=C/c2ccc(O)cc2)ccc1O
result: false (0)

query: Continue with O=c1c(O)c(-c2ccc(O)cc2)oc2cc(O)cc(O)c12
result: false (0)

query: Quick one: Oc1cc(O)c2c(c1)O[C@H](c1cc(O)c(O)c(O)c1)[C@H](O)C2 [(−)-Epigallocatechin, (−)-epigallocatechin]
result: false (0)
